- experiment: Primary qHTS for small molecule stabilizers of the endoplasmic reticulum resident proteome: Secreted ER Calcium Modulated Protein (SERCaMP) assay (AID 1508630)
- protocol conditions: SH-SY5Y GLuc-SERCaMP (Gaussia luciferase released on ER calcium loss) secretion, thapsigargin, luminescence; series mostly up to 38.4 µM
Results filed as inconclusive are left out. The source made the active and inactive calls. The call rests on the fitted dose curve; in most records, active means well fitted inhibition curve with a large enough effect; inconclusive means small, poorly fitted or top-dose-only effect; inactive means no such curve, though single readings can be large or run the other way.

{"columns": ["molecule", "activity change, negative = inhibition"],
 "data": [
  ["CN(C/C=C/C#CC(C)(C)C)Cc1cccc2ccccc12", "inactive"],
  ["CCCCCCCC(=O)OCC(COC(=O)CCCCCCC)OC(=O)CCCCCCC", "inactive"],
  ["CC(=O)[C@@]1(O)CC[C@H]2[C@@H]3C[C@H](C)C4=CC(=O)C=C[C@]4(C)[C@@]3(F)[C@@H](O)C[C@@]21C", "inactive"],
  ["CC(C)(C)C(=O)OCOC(=O)[C@@H]1N2C(=O)[C@@H](NC(=O)[C@H](N)c3ccccc3)[C@H]2SC1(C)C", "inactive"],
  ["O=c1[nH]c(=O)n([C@H]2C[C@H](O)[C@@H](CO)O2)cc1I", "inactive"],
  ["COc1ccccc1Oc1c(NS(=O)(=O)c2ccc(C(C)(C)C)cc2)nc(-c2ncccn2)nc1OCCO", "inactive"],
  ["CN[C@@H]1[C@H](O)[C@H](NC)[C@H]2O[C@@]3(O)C(=O)C[C@@H](C)O[C@H]3O[C@@H]2[C@H]1O", "inactive"],
  ["CCOc1ccc(C(=O)OCCN(CC)CC)cc1", "inactive"],
  ["CC(=O)N[C@@H](Cc1ccc(O)cc1)C(=O)O", "inactive"],
  ["OCCN1C[C@H](O)[C@@H](O)[C@H](O)[C@H]1CO", "inactive"],
  ["COC(=O)c1ccc(O)cc1", "inactive"],
  ["O=C1CC[C@@H](C(=O)O)N1", "inactive"],
  ["CCCCCCCCCCCCCCCCN", "inactive"],
  ["O=C(Cn1ccnc1[N+](=O)[O-])NCCO", "inactive"],
  ["Cn1c([N+](=O)[O-])cnc1COC(N)=O", "inactive"],
  ["Cn1c(=O)c2c(ncn2CCO)n(C)c1=O", "inactive"],
  ["CCN(CC)CC1CCCCN1CC(=O)N1c2ccccc2C(=O)Nc2cccnc21 (stereo unspecified)", "inactive"],
  ["CC(=O)N(CC(O)CN(C(C)=O)c1c(I)c(C(=O)NCC(O)CO)c(I)c(C(=O)NCC(O)CO)c1I)c1c(I)c(C(=O)NCC(O)CO)c(I)c(C(=O)NCC(O)CO)c1I (stereo unspecified)", "inactive"],
  ["Cc1cc(C)c(NC(=O)CN(CC(=O)O)CC(=O)O)c(C)c1Br", "inactive"],
  ["CC(=O)OC[C@H]1O[C@@](COC(C)=O)(O[C@H]2O[C@H](COC(C)=O)[C@@H](OC(C)=O)[C@H](OC(C)=O)[C@H]2OC(C)=O)[C@@H](OC(C)=O)[C@@H]1OC(C)=O", "inactive"],
  ["CC(=O)Nc1cccc(O)c1", "inactive"]
]}
